Every entry's value here was drawn from patent US20250242064A1.

- assay.notes: in vivo
- Parameters: species or system mice
- condition.notes: male, NOD.Cg-Rag1tm1Mom Il2rgtm1Wjl/SzJ (NRG), mouse, iv, total radioactivity, Biodistribution: Kidneys
Where a SMILES comes first, the peptide text is derived from it. Bridges are numbered along the chain shown (N, C = ends). [ ]: non-standard residue; d: D form. The star is where a group is joined. X3 = O=C(O)CN1CCN(CC(=O)O)CCN(CC(=O)N[C@@H](CS(=O)(=O)O)C(=O)N[C@@H](CCCCNC(=O)CCCc2ccc(Br)cc2)C(=O)*)CCN(CC(=O)O)CC1; X1 = O=C(O)CN1CCN(CC(=O)O)CCN(CC(=O)N[C@@H](CS(=O)(=O)O)C(=O)N[C@@H](CCCCNC(=O)CCCc2ccc(I)cc2)C(=O)*)CCN(CC(=O)O)CC1; 2Nal = N[C@@H](Cc1ccc2ccccc2c1)C(=O)O; Lys(iPr) = CC(C)NCCCC[C@H](N)C(=O)O
experimental.readout: tissue uptake at 72 h (%ID/g)
All answers are understood in %ID/g, so give the number only.

[[record]]
compound = "CC(C)NCCCC[C@H](NC(=O)[C@H]1CCC(=O)N[C@@H](CCCCNC(=O)[C@H](CCCCNC(=O)CCCc2ccc(Br)cc2)NC(=O)[C@H](CS(=O)(=O)O)NC(=O)CN2CCN(CC(=O)O)CCN(CC(=O)O)CCN(CC(=O)O)CC2)C(=O)N[C@@H](Cc2ccc(O)cc2)C(=O)N[C@@H](CCCCNC(C)C)C(=O)N[C@H](CCCNC(=N)N)C(=O)N[C@@H](Cc2ccc3ccccc3c2)C(=O)N[C@H](C)C(=O)N1)C(N)=O [[^177Lu]Lu-BL34L20, metal not drawn] (K(X3)Y[Lys(iPr)][dR][2Nal][dA][dE][Lys(iPr)]-NH2; lactam N-7)"
experimental_readout = "tissue uptake at 72 h"
quantity_unit = "%ID/g"
test_result = 0.4


Request: Read the entry CC(C)NCCCC[C@H](NC(=O)[C@H]1CCC(=O)N[C@@H](CCCCNC(=O)[C@H](CCCCNC(=O)CCCc2ccc(I)cc2)NC(=O)[C@H](CS(=O)(=O)O)NC(=O)CN2CCN(CC(=O)O)CCN(CC(=O)O)CCN(CC(=O)O)CC2)C(=O)N[C@@H](Cc2ccc(O)cc2)C(=O)N[C@@H](CCCCNC(C)C)C(=O)N[C@H](CCCNC(=N)N)C(=O)N[C@@H](Cc2ccc3ccccc3c2)C(=O)N[C@H](C)C(=O)N1)C(N)=O [[^177Lu]Lu-BL34L11, metal not drawn] (K(X1)Y[Lys(iPr)][dR][2Nal][dA][dE][Lys(iPr)]-NH2; lactam N-7) and write its reported tissue uptake at 72 h.
Result: 1.19
